Catalogue of sequences with associated folding enthalpy
Assay: folding enthalpy; higher = less favourable; fluorescence melt of hairpins on a sequencing array, two-state fit
Conditions: sodium 0.088 M
property.measured: folding enthalpy (kcal/mol)

GGTCGTGGAAACATGGCC ((.(.((....)).).)); -24
GGAATTGGAAACAATTCC (((((((....))))))); -45.1
GATCCGGCAACGGATC ((((((....)))))); -35
GCGATAGAAATATCGC ((((((....)))))); -41.7
TTCCTGAAAAGGAA (((((....))))); -15
GATCCCGCTGGGATC ((((((...)))))); -37.4

###

Experiment: melting temperature; fluorescence melt of hairpins on a sequencing array, two-state fit, raised by 9.35 °C to match UV melts
Details: sodium 0.088 M
property.measured: Tm (°C)

GCCTGGCGAAAGCAAAGC ((.(.((....)).).)); 31.6
GGATCCGAAAGGAGATCC ((((((....)))..))); 44.8
GTCTGCCGAAAGGCTGAC (((.(((....))).))); 62.1
GGTTGCGAAAGCATTACC ((((((....)))..))); 37.8
CGCGGAACGATCCGCG ((((((....)))))); 67.6
GCTTTGCGAAAGCAGTGC ((..(((....)))..)); 38.4

###

Catalogue of sequences with associated folding enthalpy
Assay: folding enthalpy; higher = less favourable; fluorescence melt of hairpins on a sequencing array, two-state fit
Conditions: sodium 0.088 M
property.measured: folding enthalpy (kcal/mol)

GATCCTCAAAAGGATC ((((((....)))))); -32.5
GTCATCCGAAAGGAGGAC (((.(((....))).))); -36.3
GTTGCTGGAAACAGTAAC (((.(((....))).))); -29
GAATAGCGAAAGCTTTTC (((.(((....))).))); -20.6
GCGTCCCCGAAAGGGCGC (((..(((....)))))); -24.3
GGATGCGAAAGCACCTCC ((((((....)))..))); -14.4
GATCCATACTGGATC ((((((...)))))); -37.6
GCCCCCCGAAAGGGCGGC (((.(((....))).))); -32.6
TCGCTGAAAAGCGA (((((....))))); -17.4
GATCCCACTTGGGATC ((((((....)))))); -42.5
GGAAACGCGAAAGCGTCC (((..(((....)))))); -9.21
GTTTCTGGAAACAGAAGC (.(((((....))))).); -26.3

###

Test: melting temperature; fluorescence melt of hairpins on a sequencing array, two-state fit, raised by 9.35 °C to match UV melts
Conditions: sodium 0.088 M
property.measured: Tm (°C)

GCAGCCGGAAACGGCCGC ((.((((....)))).)); 58.9
GCTCGGCGAAAGCCCGGC ((..(((....)))..)); 56.9
CGCACGGAAACGTTTGCG ((((((....)))..))); 44.1
GGGTAGGGAAACCTATCC ((.((((....)))).)); 46.6
GATCTTGCTAAGATC ((((((...)))))); 45.4
GCCTCTGAAAAGAGGC ((((((....)))))); 68.9
GCTTGCGAAAGCATTAGC ((((((....)))..))); 42
GCCCTACGAAAGTAAGGC (((.(((....))).))); 47.4
GGGTGGGGAAACTCACCC (((((.(....).))))); 55.4
GGTATTCCGAAAGGAACC (((..(((....)))))); 29.4
GCGTGTTGACGC ((((....)))); 55
GTGTTAGGAAACTAACAC (((((((....))))))); 57.8
GCTGCCGAAAGGCAGAGC ((((((....)))..))); 67.1
GTGGAGCCGAAAGGCCAC (((..(((....)))))); 50.5
GCAACTGGAAACAGCTGC (((.(((....))).))); 46.2
GGTGTGGGAAACTGCACC ((((..(....)..)))); 47.7
GATCAGGCCCTGATC ((((((...)))))); 50.1
GTAAGTGGAAACACTCAC ((.((((....)))).)); 32.7
GATAAACGAAAGTTGATC (((.(((....))).))); 39.4
GATCTAAGGTTAGATC ((((((....)))))); 39.3
GCGGGCGAAAGCCAACGC ((((((....)))..))); 65.3
GATCAGCACGCTGATC ((((((....)))))); 62.3
GGCGGGCCGAAAGGCGCC (((..(((....)))))); 62.3
GTTCGACGAAAGTCAAAC (((.(((....))).))); 41.7
GCCTGGCGAAAGCCGAGC ((..(((....)))..)); 49.5

###

Assay: folding enthalpy; higher = less favourable; fluorescence melt of hairpins on a sequencing array, two-state fit
Conditions: sodium 0.088 M
Parameter threshold = -20 kcal/mol. Response is condition met when folding enthalpy meets or exceeds it, else condition not met.

GGAGCCGCGAAAGCGTCC (((..(((....)))))); condition met
GATCGGTGTCCCGATC ((((((....)))))); condition not met
GATCATGGAAACATGACC (.(((((....))))).); condition met
GCTATTGGAAACAACAGC (((.(((....))).))); condition met
CGAGGTCGGAAACGATCG (((..(((....)))))); condition not met
GATCAATATCTTGATC ((((((....)))))); condition not met
GATCAGTGACTGATC ((((((...)))))); condition not met
GGCGGGGGAAACCCTGCC (((.(((....))).))); condition not met
GGGTTCGAAAGAATGCCC ((((((....)))..))); condition not met
CGACCGGAAACGGGGTCG ((((((....)))..))); condition not met
GAGTCCGGAAACGGACCC (.(((((....))))).); condition met
GACTGACGAAAGTCGTC (((.(((....)))))); condition met
GGGCACGAAAGTGTCCCC ((((((....)))..))); condition met
GACTTGGGAAACTGAGTC ((((..(....)..)))); condition not met
GGGGTGGGAAACCGTCCC (((..((....))..))); condition met
GATGGCGAAAGCCAAATC ((((((....)))..))); condition met
GATACCGGAAACGGTGTC ((.((((....)))).)); condition not met
GCACGGCGAAAGCCTGGC ((..(((....)))..)); condition met
CCATCGAAAGATGG (((((....))))); condition not met
GCGTACCCGAAAGGGCGC (((..(((....)))))); condition not met
GTGGTGGGAAACTACCAC (((((.(....).))))); condition not met
GTAGGCGAAAGCCACTAC ((((((....)))..))); condition met
GGGGTAGGAAACTGTCCC (((..((....))..))); condition not met
GACGATGGAAACATTGTC (((.(((....))).))); condition not met
GCATTCGGAAACAAATGC (((((.(....).))))); condition not met

###

Assay: folding enthalpy; higher = less favourable; fluorescence melt of hairpins on a sequencing array, two-state fit
Settings: sodium 0.088 M
Parameter threshold = -90 kJ/mol. Response is true when folding enthalpy meets or exceeds it, else false.

GATCTGACCCCAGATC ((((((....)))))); false
GCGACTTCTCGC ((((....)))); false
GGTAAACGAAAGTTACC (((.(((....)))))); false
GCGGTCTCCCGC ((((....)))); false
GCTAGGCGAAAGCATCGC ((.(.((....)).).)); true
GGTGCCGAAAGGCTCACC ((((((....)))..))); true
GCACGCGAAAGCGACTGC ((((((....)))..))); true
GCCGTAGCGAAAGCTGGC (((..(((....)))))); false
GCTATCGGAAACGATAAC (.(((((....))))).); true
GAGCTGCCGAAAGGCCTC (((..(((....)))))); true
GGCACCGAAAGGTGAGCC ((((((....)))..))); true
TTTCCGAAAGGAAA (((((....))))); true
GAGAATCCGAAAGGACTC (((..(((....)))))); true
GATTGTGGAAACACAATC (((((((....))))))); false
GCCCAACGAAAGTTTGGC (((.(((....))).))); false
GAGGACGAAAGTCATCTC ((((((....)))..))); true
GATCGGGGAACCGATC ((((((....)))))); false
GTTAGCGAAAGCTATAAC ((((((....)))..))); true
GCTTTGCGAAAGCACAGC (((.(((....))).))); false
GGAAACCGAAAGGTGTCC (((.(((....))).))); false
CGCGGAATTCTCCGCG ((((((....)))))); false
GTGTCACGAAAGTGCAC (((.(((....)))))); false
GGCAATCGAAAGATGGCC (((.(((....))).))); false
CAGAAGAAATTCTG (((((....))))); true
